EXPERIMENTAL_SYSTEM: NL20 human bronchial epithelial cells expressing human Z-AAT (Homo sapiens, UniProt P01009, E366K)
Sequence (P01009 25-418 E366K): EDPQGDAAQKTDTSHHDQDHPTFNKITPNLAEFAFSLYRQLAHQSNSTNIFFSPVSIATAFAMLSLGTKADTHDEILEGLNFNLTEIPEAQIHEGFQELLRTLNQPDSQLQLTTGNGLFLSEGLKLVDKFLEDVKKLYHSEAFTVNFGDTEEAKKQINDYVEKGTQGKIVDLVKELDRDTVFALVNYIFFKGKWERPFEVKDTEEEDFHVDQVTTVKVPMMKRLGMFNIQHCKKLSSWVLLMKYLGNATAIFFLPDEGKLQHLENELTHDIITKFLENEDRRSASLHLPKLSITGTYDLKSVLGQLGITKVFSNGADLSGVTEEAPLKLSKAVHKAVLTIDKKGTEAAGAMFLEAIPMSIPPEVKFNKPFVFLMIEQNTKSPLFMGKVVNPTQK
METHOD_DESCRIPTION: AAT Function Assay (MSD Assay NL20-SI Cell Line)
CONDITION_INFO: functionally active AAT in supernatant of NL20 cells expressing human Z-AAT, MSD readout; read-out: NL20 Func. (EC50)
pEC50: −log10 of the molar value.
QUANTITY_NAME: pEC50

- COMPOUND: "COc1ccc(-c2c(C3CCOCC3)n(-c3ccc(F)cc3)c3cc4cn[nH]c4cc23)cn1"
  pEC50: "6.00 to 6.40"

QUERY: Bench note: what pEC50 did [2H]C1([2H])COCC([2H])([2H])C1([2H])c1c(-c2ccc(C(=O)O)cc2)c2cc3[nH]ncc3cc2n1-c1ccc(F)cc1 show?
RESULT: > 6.40

QUERY: Bench note: what pEC50 did O=C(O)c1cc(-c2c(C3CCOCC3)n(-c3ccc(F)cc3)c3cc4cn[nH]c4cc23)ccc1F show?
RESULT: < 6.00

* * *

EXPERIMENTAL_SYSTEM: Z-AAT (Homo sapiens, UniProt P01009, E366K)
Construct: Purified Z-AAT protein from human plasma; Vertex Cambridge Sample 4942)
Sequence (P01009 25-418 E366K): as above
METHOD_DESCRIPTION: Biochemical Assay (Z-AAT Elastase Activity Assay)
CONDITION_INFO: purified Z-AAT protein from human plasma and purified human neutrophil elastase
In this section, each of the compounds is paired with its reported IC50.

Example cases with answers are listed next.
- SMILES_DATA: "CC(C)(CC#N)c1c(-c2ccc(C(=O)O)cc2)c2cc3[nH]ncc3cc2n1C1CCCCC1"
  EXPERIMENTAL_SYSTEM: "Z-AAT (Homo sapiens, UniProt P01009, E366K)"
  RESULT: "> 1 µM"
- SMILES_DATA: "CCC1(c2c(-c3ccc(C(=O)O)cc3F)c3cc4[nH]ncc4cc3n2-c2ccc(F)cc2)COC1"
  EXPERIMENTAL_SYSTEM: "Z-AAT (Homo sapiens, UniProt P01009, E366K)"
  RESULT: "> 1 µM"
- SMILES_DATA: "CC(C)c1c(-c2cc(C(=O)O)cc(C(F)(F)F)c2)c2cc3[nH]ncc3cc2n1-c1ccc(F)cc1"
  EXPERIMENTAL_SYSTEM: "Z-AAT (Homo sapiens, UniProt P01009, E366K)"
  RESULT: "> 30 µM"
- SMILES_DATA: "Cc1cc(C(=O)O)cnc1-c1c(C(C)C)n(-c2ccc(F)cc2)c2cc3cn[nH]c3cc12"
  EXPERIMENTAL_SYSTEM: "Z-AAT (Homo sapiens, UniProt P01009, E366K)"
  RESULT: "> 1 µM"
- SMILES_DATA: "NC(=O)c1ccc(-c2c(C3CCOCC3)n(-c3ccc(F)cc3)c3cc4cn[nH]c4cc23)cc1"
  EXPERIMENTAL_SYSTEM: "Z-AAT (Homo sapiens, UniProt P01009, E366K)"
  RESULT: "> 30 µM"
- SMILES_DATA: "CC(C)(CC#N)c1c(-c2ccc(C(=O)O)cc2)c2cc3[nH]ncc3cc2n1CC1CCCCC1"
  EXPERIMENTAL_SYSTEM: "Z-AAT (Homo sapiens, UniProt P01009, E366K)"
  RESULT: "> 30 µM"

QUERY: Lab note: need IC50 with Z-AAT (Homo sapiens, UniProt P01009, E366K) for entry CC(C)(CC#N)c1c(-c2ccc(C(=O)O)cc2)c2cc3[nH]ncc3cc2n1Cc1cccc(F)c1 , please look it up.
RESULT: > 30 µM
